- target_of_assay: human CXCR4 (chemokine (C-X-C motif) receptor 4) (human, UniProt P61073 1-352)
- Sequence (P61073 whole entry): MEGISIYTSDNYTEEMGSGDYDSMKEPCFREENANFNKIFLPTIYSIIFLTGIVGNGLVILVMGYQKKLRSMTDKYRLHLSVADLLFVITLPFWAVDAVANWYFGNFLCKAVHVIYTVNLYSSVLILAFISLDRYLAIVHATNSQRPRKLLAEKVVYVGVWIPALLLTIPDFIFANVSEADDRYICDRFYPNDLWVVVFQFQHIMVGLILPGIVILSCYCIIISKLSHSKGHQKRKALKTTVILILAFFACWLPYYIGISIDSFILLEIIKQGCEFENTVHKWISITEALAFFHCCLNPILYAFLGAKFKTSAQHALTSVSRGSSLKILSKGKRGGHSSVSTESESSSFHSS
- measurement_description: cell-based or functional assay
measurement_kind: IC50 (M), Calcium Flux Activity (average of 3 experiments)

Using the record for humanized anti-CXCR4 antibody h3G10.A57 (antibody, V domains shown) VH: EVQLVESGGGLVQPGGSLRLSCAASGFTFSDYYMSWVRQAPGKGLEWVGFIRHKANFYTTEYSTSVKGRFTISRDDSKNSLYLQMNSLKTEDTAVYYCARDLPGFAYWGQGTLVTVSS VL: DIVMTQSPDSLAVSLGERATINCKSSQSLFNSRTRKNYLAWYQQKPGQPPKLLIYWASARESGVPDRFSGSGSGTDFTLTISSLQAEDVAVYYCKQSFNLRTFGGGTKVEIK , report its IC50 (M), Calcium Flux Activity (average of 3 experiments).
1.69e-09 M

Then humanized anti-CXCR4 antibody h3G10.1.91.A58B (antibody, V domains shown, Whole antibody (detected with an anti-human IgG Fc gamma specific second antibody); also called h3G10.1.91 VH / h3G10.A58B VL; CXCR4 Ab h3G10.1.91.A58B) VH: EVQLVESGGGLVQPGGSLRLSCAASGFTFSDYYMSWVRQAPGKGLEWVGFIRHKANFETTEYSTSVKGRFTISRDDSKNSLYLQMNSLKTEDTAVYYCARDLPGFAYWGQGTLVTVSS VL: DIVMTQSPDSLAVSLGERATINCKSSQSLFNSHTRKNYLAWYQQKPGQPPKLLIYWASARGSGVPDRFSGSGSGTDFTLTISSLQAEDVAVYYCKQSFNLRTFGGGTKVEIK ?
2.17e-09 M

humanized anti-CXCR4 antibody h3G10.2.37.2.72 (antibody, V domains shown) VH: EVQLVESGGGLVQPGGSLRLSCAASGFTFSDYYMSWVRQAPGKGLEWVGFIRHKANFYTREYSTSVKGRFTISRDDSKNSLYLQMNSLKTEDTAVYYCARDLPGFAYWGQGTLVTVSS VL: DIVMTQSPDSLAVSLGERATINCKSSQSLFNSRTRKNYLAWYQQKPGQPPKLLIYWASARESGVPDRFSGSGSGTDFTLTISSLQAEDVAVYYCKQSFRLRTFGGGTKVEIK , same question.
1.36e-09 M
